Measured solubility, listed per entry.
- protocolSummary: Aqueous solubility at pH 7.4
- Type: physicochemical
- condition: aqueous medium at pH 7.4, aqueous buffer
Non-standard residues stand in square brackets, D forms with d. Residues, ends and D or L forms follow the SMILES beside them. ξ: configuration not given here. *: point of attachment. ξNMeW = CNC(Cc1c[nH]c2ccccc12)C(=O)O; ξW = NC(Cc1c[nH]c2ccccc12)C(=O)O; NMeAib = CNC(C)(C)C(=O)O; Boc = CC(C)(C)OC(=O)*; Aib = CC(C)(N)C(=O)O

CC(C)(NC(=O)C(Cc1c[nH]c2ccccc12)NC=O)C(=O)O (stereo not drawn)
222 µM
CC(C)(NC(=O)C(N)Cc1c[nH]c2ccccc12)C(=O)O (stereo not drawn) [reference compound]
> 350 µM
CN(C(=O)[C@@H](Cc1c[nH]c2ccccc12)NC(=O)OC(C)(C)C)C(C)(C)C(=O)O [drawing 65] (Boc-[dW]-[NMeAib]-OH)
239 µM
CC(C)(NC(=O)C(N)Cc1c[nH]c2ccccc12)C(N)=O (stereo not drawn) (H-[ξW]-[Aib]-NH2)
> 355 µM
CC(C)(C)OC(=O)N/C(=C\c1c[nH]c2ccccc12)C(=O)NC(C)(C)C(=O)O [drawing 63]
> 280 µM
CC(C)(C)OC(=O)N/C(=C\c1c[nH]c2ccccc12)C(=O)NC(C)(C)C(N)=O [drawing 64]
> 282 µM

According to the records, this compound CC(=O)N(C)C(Cc1c[nH]c2ccccc12)C(=O)NC(C)(C)C(=O)O (stereo not drawn) (Ac-[ξNMeW]-[Aib]-OH) displays solubility of > 278 µM

According to the records, this compound CC(=O)N[C@H](Cc1c[nH]c2ccccc12)C(=O)N(C)C(C)(C)C(=O)O [drawing 66] (Ac-[dW]-[NMeAib]-OH) displays solubility of > 286 µM

According to the records, this compound CC(=O)NC(Cc1c[nH]c2ccccc12)C(=O)NC(C)(C)C(=O)O (stereo not drawn) displays solubility of 253 µM

----------
Measured Metabolic Stability (%) HLM, listed per entry.
- protocolSummary: Metabolic stability in human liver microsomes
- Format: in vitro ADME
- condition: % of compound remaining after 30 minutes
Non-standard residues stand in square brackets, D forms with d. Residues, ends and D or L forms follow the SMILES beside them. *: point of attachment. NMeAib = CNC(C)(C)C(=O)O; Boc = CC(C)(C)OC(=O)*
Unit % implied. Number only.

Here's what some known entries look like.
CN(C(=O)[C@@H](Cc1c[nH]c2ccccc12)NC(=O)OC(C)(C)C)C(C)(C)C(=O)O [drawing 65] (Boc-[dW]-[NMeAib]-OH)
100
CC(=O)NC(Cc1c[nH]c2ccccc12)C(=O)NC(C)(C)C(=O)O (stereo not shown)
90

According to the records, this compound CC(C)(NC(=O)C(Cc1c[nH]c2ccccc12)NC=O)C(=O)O (stereo not shown) displays Metabolic Stability (%) HLM of 87

According to the records, this compound CC(=O)N[C@H](Cc1c[nH]c2ccccc12)C(=O)N(C)C(C)(C)C(=O)O [drawing 66] (Ac-[dW]-[NMeAib]-OH) displays Metabolic Stability (%) HLM of 88

According to the records, this compound CC(C)(C)OC(=O)N/C(=C\c1c[nH]c2ccccc12)C(=O)NC(C)(C)C(=O)O [drawing 63] displays Metabolic Stability (%) HLM of 95
